So I've got a bunch of compounds here, and I need their MIC values.
System: Staphylococcus epidermidis
testDetails: Minimum inhibitory concentration against methicillin-sensitive Staphylococcus epidermidis in the presence of 30% bovine serum
Format: functional
Express it in µg/mL; write the number only.

Quick one: MIC for CCCCCCCCCCc1ccc(CNC2[C@H](Oc3c4cc5cc3Oc3ccc(cc3Cl)[C@@H](O)C3NC(=O)[C@H](NC(=O)[C@@H]5NC(=O)[C@H]5NC(=O)[C@@H](Cc6ccc(cc6)O4)NC(=O)[C@H](NC)c4ccc(O)c(c4)Oc4cc(O)c(Cl)c5c4)c4ccc(O)c(c4)-c4c(O[C@H]5O[C@H](CO)[C@@H](O)[C@H](O)[C@@H]5O)cc(O)cc4[C@@H](C(=O)NCCCN(C)C)NC3=O)OC(C(=O)NCCCN(C)C)C(O)[C@@H]2O)cc1 (stereo not given in full) ?
1

Next compound up: CCCCOc1ccc(CN(C)[C@H]2C(=O)N[C@@H]3Cc4ccc(cc4)Oc4cc5cc(c4O[C@@H]4OC(C(=O)O)C(O)[C@H](O)C4N)Oc4ccc(cc4Cl)[C@@H](O)C4NC(=O)[C@H](NC(=O)[C@@H]5NC(=O)[C@@H](NC3=O)c3cc(cc(O)c3Cl)Oc3cc2ccc3O)c2ccc(O)c(c2)-c2c(O[C@H]3O[C@H](CO)[C@@H](O)[C@H](O)[C@@H]3O)cc(O)cc2[C@@H](C(=O)O)NC4=O)cc1 (stereo not given in full)
32

Next compound up: CCCCn1cc(CNC2[C@H](Oc3c4cc5cc3Oc3ccc(cc3Cl)[C@@H](O)C3NC(=O)[C@H](NC(=O)[C@@H]5NC(=O)[C@H]5NC(=O)[C@@H](Cc6ccc(cc6)O4)NC(=O)[C@H](N(C)Cc4cn(CCCC)c6ccccc46)c4ccc(O)c(c4)Oc4cc(O)c(Cl)c5c4)c4ccc(O)c(c4)-c4c(O[C@H]5O[C@H](CO)[C@@H](O)[C@H](O)[C@@H]5O)cc(O)cc4[C@@H](C(=O)NCCCN(C)C)NC3=O)OC(C(=O)NCCCN(C)C)C(O)[C@@H]2O)c2ccccc21 (stereo not given in full)
0.25

Next compound up: CCCCc1ccc(CNC2[C@H](Oc3c4cc5cc3Oc3ccc(cc3Cl)[C@@H](O)C3NC(=O)[C@H](NC(=O)[C@@H]5NC(=O)[C@H]5NC(=O)[C@@H](Cc6ccc(cc6)O4)NC(=O)[C@H](N(C)Cc4ccc(CCCC)cc4)c4ccc(O)c(c4)Oc4cc(O)c(Cl)c5c4)c4ccc(O)c(c4)-c4c(O[C@H]5O[C@H](CO)[C@@H](O)[C@H](O)[C@@H]5O)cc(O)cc4[C@@H](C(=O)O)NC3=O)OC(C(=O)O)C(O)[C@@H]2O)cc1 (stereo not given in full)
4

Next compound up: CCCCCCC(CCCC)CNC1[C@H](Oc2c3cc4cc2Oc2ccc(cc2Cl)[C@@H](O)C2NC(=O)[C@H](NC(=O)[C@@H]4NC(=O)[C@H]4NC(=O)[C@@H](Cc5ccc(cc5)O3)NC(=O)[C@H](NC)c3ccc(O)c(c3)Oc3cc(O)c(Cl)c4c3)c3ccc(O)c(c3)-c3c(O[C@H]4O[C@H](CO)[C@@H](O)[C@H](O)[C@@H]4O)cc(O)cc3[C@@H](C(=O)O)NC2=O)OC(C(=O)O)C(O)[C@@H]1O (stereo not given in full)
2

---

Test system: Staphylococcus epidermidis
testDetails: Minimum inhibitory concentration against methicillin-sensitive Staphylococcus epidermidis in the presence of 30% bovine serum
Assay type: functional
assayMetric: MIC (mg/L)
Express it in mg/L; write the number only.

Quick one: MIC for CCCCc1ccc(CNC2[C@H](Oc3c4cc5cc3Oc3ccc(cc3Cl)[C@@H](O)C3NC(=O)[C@H](NC(=O)[C@@H]5NC(=O)[C@H]5NC(=O)[C@@H](Cc6ccc(cc6)O4)NC(=O)[C@H](N(C)Cc4ccc(CCCC)cc4)c4ccc(O)c(c4)Oc4cc(O)c(Cl)c5c4)c4ccc(O)c(c4)-c4c(O[C@H]5O[C@H](CO)[C@@H](O)[C@H](O)[C@@H]5O)cc(O)cc4[C@@H](C(=O)NCCCN(C)C)NC3=O)OC(C(=O)NCCCN(C)C)C(O)[C@@H]2O)cc1 (stereo not given in full) ?
0.25

Next compound up: CCCCn1cc(CNC2[C@H](Oc3c4cc5cc3Oc3ccc(cc3Cl)[C@@H](O)C3NC(=O)[C@H](NC(=O)[C@@H]5NC(=O)[C@H]5NC(=O)[C@@H](Cc6ccc(cc6)O4)NC(=O)[C@H](N(C)Cc4cn(CCCC)c6ccccc46)c4ccc(O)c(c4)Oc4cc(O)c(Cl)c5c4)c4ccc(O)c(c4)-c4c(O[C@H]5O[C@H](CO)[C@@H](O)[C@H](O)[C@@H]5O)cc(O)cc4[C@@H](C(=O)O)NC3=O)OC(C(=O)O)C(O)[C@@H]2O)c2ccccc21 (stereo not given in full)
4

Next compound up: CN(Cc1c[nH]c2ccccc12)[C@H]1C(=O)N[C@@H]2Cc3ccc(cc3)Oc3cc4cc(c3O[C@@H]3OC(C(=O)O)C(O)[C@H](O)C3NCc3c[nH]c5ccccc35)Oc3ccc(cc3Cl)[C@@H](O)C3NC(=O)[C@H](NC(=O)[C@@H]4NC(=O)[C@@H](NC2=O)c2cc(cc(O)c2Cl)Oc2cc1ccc2O)c1ccc(O)c(c1)-c1c(O[C@H]2O[C@H](CO)[C@@H](O)[C@H](O)[C@@H]2O)cc(O)cc1[C@@H](C(=O)O)NC3=O (stereo not given in full)
64

Next compound up: CN(Cc1ccc(-c2ccccc2)cc1)[C@H]1C(=O)N[C@@H]2Cc3ccc(cc3)Oc3cc4cc(c3O[C@@H]3OC(C(=O)O)C(O)[C@H](O)C3N)Oc3ccc(cc3Cl)[C@@H](O)C3NC(=O)[C@H](NC(=O)[C@@H]4NC(=O)[C@@H](NC2=O)c2cc(cc(O)c2Cl)Oc2cc1ccc2O)c1ccc(O)c(c1)-c1c(O[C@H]2O[C@H](CO)[C@@H](O)[C@H](O)[C@@H]2O)cc(O)cc1[C@@H](C(=O)O)NC3=O (stereo not given in full)
2

---

So I've got a bunch of compounds here, and I need their MIC values.
Test system: Staphylococcus epidermidis
testDetails: Minimum inhibitory concentration against methicillin-sensitive Staphylococcus epidermidis in the presence of 30% bovine serum
Assay type: functional
Express it in µg/mL; write the number only.

Quick one: MIC for CCCCCCCCOc1ccc(CNC2[C@H](Oc3c4cc5cc3Oc3ccc(cc3Cl)[C@@H](O)C3NC(=O)[C@H](NC(=O)[C@@H]5NC(=O)[C@H]5NC(=O)[C@@H](Cc6ccc(cc6)O4)NC(=O)[C@H](NC)c4ccc(O)c(c4)Oc4cc(O)c(Cl)c5c4)c4ccc(O)c(c4)-c4c(O[C@H]5O[C@H](CO)[C@@H](O)[C@H](O)[C@@H]5O)cc(O)cc4[C@@H](C(=O)O)NC3=O)OC(C(=O)O)C(O)[C@@H]2O)cc1 (stereo partly drawn) ?
16

Next compound up: CN[C@H]1C(=O)N[C@@H]2Cc3ccc(cc3)Oc3cc4cc(c3O[C@@H]3OC(C(=O)NCCCN(C)C)C(O)[C@H](O)C3N)Oc3ccc(cc3Cl)[C@@H](O)C3NC(=O)[C@H](NC(=O)[C@@H]4NC(=O)[C@@H](NC2=O)c2cc(cc(O)c2Cl)Oc2cc1ccc2O)c1ccc(O)c(c1)-c1c(O[C@H]2O[C@H](CO)[C@@H](O)[C@H](O)[C@@H]2O)cc(O)cc1[C@@H](C(=O)NCCCN(C)C)NC3=O (stereo partly drawn)
1
